Biological target: TcMevK (Tribolium castaneum, UniProt D2A4R0)
Construct: gene AUGUSTUS-3.0.2_15408; N-terminal His6 tag (pET28a-derived vector), expressed in E. coli BL21(DE3), Ni-chelating and Superdex 200 purified
Sequence (D2A4R0 1-396): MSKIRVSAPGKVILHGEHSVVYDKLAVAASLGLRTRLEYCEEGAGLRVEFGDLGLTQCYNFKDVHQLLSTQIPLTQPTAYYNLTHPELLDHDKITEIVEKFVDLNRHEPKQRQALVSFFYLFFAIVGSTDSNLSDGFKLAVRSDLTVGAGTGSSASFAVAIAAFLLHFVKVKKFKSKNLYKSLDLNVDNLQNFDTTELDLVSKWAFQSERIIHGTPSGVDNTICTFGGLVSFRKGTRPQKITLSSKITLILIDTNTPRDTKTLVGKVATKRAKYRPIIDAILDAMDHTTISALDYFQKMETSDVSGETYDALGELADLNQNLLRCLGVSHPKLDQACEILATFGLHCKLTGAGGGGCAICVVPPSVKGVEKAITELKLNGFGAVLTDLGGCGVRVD
Test: intrinsic fluorescence quenching, excitation […] nm
Assay type: binding
Conditions: read-out: KD Value for Mev
Endpoint Label: Kd (µM)
One number for each entry, in µM.

Given C[C@@](O)(CCO)CC(=O)O [mevalonate] , state its recorded Kd. 30
